# System: MS2 coat protein
# assay-details: apparent KD of MS2 coat protein; designed switch direction (-1 OFF switch, 1 ON switch): -1; higher = weaker reporter binding
# reported-conditions: input ligand: FMN 200 uM
Assign 1 (yes) to entries whose apparent KD of MS2 coat protein meets or exceeds 30 nM; assign 0 (no) to the rest.

These recorded examples may help you get a feel for the data.
GGUAUACAUGAGGAUCACCCAUGUCAGGAUAUGGAAACAUAUGCCGAAAGGCAUAUGGCCAGAAGGGACAAUAG [AK-MS2ROC-r4-exclusion1-5.1] (Eterna round: R97, puzzle: Exclusion 1) = 1 (yes)
UUCCUACUUGAGGAUCACCCAAGUCAGGAUAUCCAUAGCCGACACUCUUUUCGGAACGGGAGAAGGGACUUGGU [Tiisatbi] (Eterna round: R97, puzzle: Exclusion 1) = 1 (yes)

Problem: Could you tell me if the measured apparent KD of MS2 coat protein of UCCUCACAUGAGGAUCACCCAUGUCAGGAUAUCCAACAUGCUCCCAAAACCACGCAUCGGAGAAGGGACAUGCA [EX1 A.6] (Eterna round: R97, puzzle: Exclusion 1) reaches 30 nM or more?
Result: 0 (no)

Problem: And what about the sequence GUUAUGUCAGGAUAUGCUAAUGAUGAAUGAUCAGACAUGAUGUAGAAGGGACAUGAGGAUCACCCAUGUAAUAU [EX4 #7] (Eterna round: R97, puzzle: Exclusion 4) ?
Result: 1 (yes)

Problem: And what about the sequence CUAAUUUGUGUGAGGAUAUGGCGACAGGAGACUAGCCAGAAGGUACAUGAGGAUCACCCAUGUAAGGUCCUCUC [Eternabot (L1) Solution 86] (Eterna round: R97, puzzle: Brourd's mod of Exclusion 4) ?
Result: 0 (no)

----------
# Test system: K4 kissing-loop RNA reporter;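 also: bound reporter read as fluorescence of individual clusters on recovered sequencing chips by microscopy, with normalized cluster intensities fitted with a binding model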
# assay-details: apparent KD of K4 kissing-loop reporter; higher = weaker reporter binding
# reported-conditions: Eterna round: R107; input ligand: none
Assign satisfied to entries whose apparent KD of K4 kissing-loop reporter meets or exceeds 200 nM; assign not satisfied to the rest.

UCGAAGGAUGGAAGGAGCGCUCGUCAGUCCUGCGAGUGAUGUUCGUGGGUAAAUAUUCGCGAGCAGGUAGGUCGCCAUCUCGAAC [Erbemaa] = not satisfied

Problem: Could you tell me if the measured apparent KD of K4 kissing-loop reporter of AGGAGUGAUGUUCCUACAUACACGGUCCGACGAGGACCGGUACGGCCGCCACUCGCGUCCCAGUGAUGUUGGGAUUUGGCGUACG [Exclusion Tryptophan A GF 17] reaches 200 nM or more?
Result: not satisfied

Problem: And what about the sequence AUUUAAUGUAUAGAUUAUAUACAUAAUUCAGAGGAUAUGCGAAGAAGCAGAAGGCUGGUUGCAGUGAUGUUGCUUUUAUAAUUUA [JR_SSFMNA_Sub009] ?
Result: not satisfied

Problem: And what about the sequence GGAUCUUCCAGUGAUGUUGGUUAAUAUAUCAAGGAUAUGACGAAAGUCAGAAGGUGAAAGACUGGACAAAGUCCAGUCGGAUCCA [KL-SSFMN-A19] ?
Result: satisfied

Problem: And what about the sequence AAAAUAAACCAGUGAUGUUGGUGUCUAGAUACCAGCGACGAAAGUCGCCCUUGGCAGCUGUGGACGUACAAAAUAAGUACGUCCU [MatMod 5 - Jieux - Same State - Theophylline A] ?
Result: satisfied

Problem: And what about the sequence UUUAAAUAUAGUGAUGUUAUAUAACAAUGACGAGGACCGGUACGGCCGCCACUCGAGAGAGAUAAUGGUCUUACAAAUGUAAGUC [AstrosSSTryA#8] ?
Result: satisfied

Problem: And what about the sequence CUUAGGAGUGGUGUUGAUUAGGGAGCGGAAGGAGCGCCAAUGAUGGCAGGUAGGUCGCCGGAAUAUAGUGAUGUUAUAUAGAGGG [ExArgA.Q] ?
Result: satisfied

Problem: And what about the sequence UCGCCAAAGUCGGCCGCCACUCCGGGCCCUAUAAAUGGGCGCAGUGAUGUUGCGGCUAGGCCUCUGAGGACCGGGACUUUGUAAA [Tiesgeza] ?
Result: not satisfied

Problem: And what about the sequence UGUGAUGUUGUGAUGUUUAGUGUUGUUGGGCAGGAUAUUGUAGAGGCGAGAAGGGCUUGUGUGAUGUAUGAGUGAUGUUUGUAGU [cffdmullin] ?
Result: not satisfied

Problem: And what about the sequence AAUUUAUUAUCUGAUACCAGACUUUUUCUUGUAUAUAAGUCAAGUGAUGUUUGACUUUUAGUCCCUUGGCAGCAGUAUUUUUUAA [JR_Nu_SSTheophyB_Sub027] ?
Result: not satisfied

Problem: And what about the sequence GCAGUGAUGUUGCACGAGUAGGCUGGAGUACGAGGACCGGUACGGCCGCCACUCGUACGAUAGUCGCUAAUUUAUGGAAUGGUGA [#08 K4 Tryptophan A Same State] ?
Result: satisfied

Hey, just so you know, these numbers are from the supplement of paper PMC9170038.
